Data provenance is paper PMC9865188.

- RUN_DESCRIPTION: Pharmacokinetic study in Sprague Dawley rats (oral gavage)
- Format: in vivo
- MEASUREMENT_CONDITIONS: male, Sprague Dawley, rat, plasma, po, 20 mg/kg, Etoposide Cmax, group C: etoposide 20 mg/kg + 5.0% v/v polysorbate 20 oral

MOLECULE	Cmax
COc1cc([C@@H]2c3cc4c(cc3[C@@H](O[C@@H]3O[C@@H]5CO[C@@H](C)O[C@H]5[C@H](O)[C@H]3O)[C@H]3COC(=O)[C@H]23)OCO4)cc(OC)c1O [etoposide]	1220 ng/mL

====

- RUN_DESCRIPTION: Pharmacokinetic study in Sprague Dawley rats (oral gavage)
- Assay type: in vivo
- MEASUREMENT_CONDITIONS: male, Sprague-Dawley, rat, plasma, po, 20 mg/kg, Etoposide AUC0–6h, group E: etoposide 20 mg/kg + zosuquidar 6.3 mg/kg + 5.0% v/v polysorbate 20 oral

MOLECULE	AUC(0-t), ng·h/mL
COc1cc([C@@H]2c3cc4c(cc3[C@@H](O[C@@H]3O[C@@H]5CO[C@@H](C)O[C@H]5[C@H](O)[C@H]3O)[C@H]3COC(=O)[C@H]23)OCO4)cc(OC)c1O [etoposide]	2800

====

- RUN_DESCRIPTION: Pharmacokinetic study in Sprague Dawley rats (oral gavage)
- Assay type: in vivo
- MEASUREMENT_CONDITIONS: male, Sprague-Dawley, rat, plasma, po, 20 mg/kg, Etoposide t½, group D: etoposide 20 mg/kg + zosuquidar 2.0 mg/kg + 5.0% v/v polysorbate 20 oral

COMPOUND	half-life [min]
COc1cc([C@@H]2c3cc4c(cc3[C@@H](O[C@@H]3O[C@@H]5CO[C@@H](C)O[C@H]5[C@H](O)[C@H]3O)[C@H]3COC(=O)[C@H]23)OCO4)cc(OC)c1O [etoposide]	52.9

====

- RUN_DESCRIPTION: Pharmacokinetic study in Sprague Dawley rats (oral gavage)
- Type: in vivo
- MEASUREMENT_CONDITIONS: male, Sprague-Dawley, rat, plasma, po, 20 mg/kg, Etoposide t½, group C: etoposide 20 mg/kg + 5.0% v/v polysorbate 20 oral
MEASUREMENT_NAME: half-life

COMPOUND	RESULT
COc1cc([C@@H]2c3cc4c(cc3[C@@H](O[C@@H]3O[C@@H]5CO[C@@H](C)O[C@H]5[C@H](O)[C@H]3O)[C@H]3COC(=O)[C@H]23)OCO4)cc(OC)c1O [etoposide]	43.3 min

====

- RUN_DESCRIPTION: Pharmacokinetic study in Sprague Dawley rats (oral gavage)
- Assay type: in vivo
- MEASUREMENT_CONDITIONS: male, Sprague Dawley, rat, plasma, po, 20 mg/kg, Etoposide Cmax, group D: etoposide 20 mg/kg + zosuquidar 2.0 mg/kg + 5.0% v/v polysorbate 20 oral
MEASUREMENT_NAME: Cmax (ng/mL)

COMPOUND	QUANTITY_UNIT	NUMERIC_VALUE
COc1cc([C@@H]2c3cc4c(cc3[C@@H](O[C@@H]3O[C@@H]5CO[C@@H](C)O[C@H]5[C@H](O)[C@H]3O)[C@H]3COC(=O)[C@H]23)OCO4)cc(OC)c1O [etoposide]	ng/mL	1430

====

- RUN_DESCRIPTION: Pharmacokinetic study in Sprague Dawley rats (oral gavage)
- Type: in vivo
- MEASUREMENT_CONDITIONS: male, Sprague-Dawley, rat, plasma, po, 6.3 mg/kg, Zosuquidar bioavailability, group F: zosuquidar 6.3 mg/kg + etoposide 20 mg/kg + 10% v/v polysorbate 20 oral
MEASUREMENT_NAME: bioavailability (%)

> print(dat)
                           structure.string  numeric.value
1  O[C@@H](COc1cccc2ncccc12)CN1CCN([C@@H]2c3ccccc3[C@@H]3[C@H](c4ccccc42)C3(F)F)CC1           5.38
